This collection of values is drawn from patent US5472954A.

Task for the reader: assign each of the following compounds its reported solubility.
experiment: physchem; settings: aqueous 0.25% hpmc
Write the quantity with the unit trailing the number.

# example entries with known answers
{"columns": ["compound", "property-measured", "value-measured"],
 "data": [
  ["CC12CCC(CC1=O)C2(C)C (stereo not shown) [Camphor]", "solubility", "1920 µg/mL"],
  ["CC(C)(O)C(Cl)(Cl)Cl [Chlorbutol]", "solubility", "8150 µg/mL"]
]}

Quick request: solubility for each listed item, please.
1. CN(C)c1ccc(N=Nc2ccccc2)cc1 [Methylyellow]
2. COc1cc(C=O)ccc1O [Vanillin]

1. 0.75 µg/mL
2. 17100 µg/mL

====

Would you mind telling me the reported solubility at 72 h of each entry?
assay: Effect of PVP on the solubilization of drugs in aqueous HPβCD solutions (Example 7); conditions: water
One number for each entry, in µg/mL.

{"columns": ["compound", "solubility at 72 h / µg/mL"],
 "data": [
  ["C[C@@H]1C[C@H]2[C@@H]3CCC4=CC(=O)C=C[C@]4(C)[C@@]3(F)[C@@H](O)C[C@]2(C)[C@@]1(O)C(=O)CO", 260]
]}

Let us examine a further case.
Find the recorded solubility at 72 h belonging to NC(=O)N1c2ccccc2C=Cc2ccccc21 [Carbamazepine, carbamazepine] and report it.
110

====

test: physchem; settings: aqueous 0.25% cmc, 10% hpβcd
Returns t if the recorded solubility is greater than or equal to 10 mg/mL, and f otherwise.

Worked examples, 3 compounds total:
{"columns": ["compound", "discrete-label"],
 "data": [
  ["CC12CCC(CC1=O)C2(C)C (centres unmarked)", "t"],
  ["CC(C)(O)C(Cl)(Cl)Cl", "t"],
  ["C=C1CC[C@H](O)C/C1=C/C=C1\\CCC[C@]2(C)[C@@H]([C@H](C)CCCC(C)C)CC[C@@H]12", "f"]
]}

# bool: solubility of COc1cc(C=O)ccc1O >= 10 mg/mL
t

Try the compound CN(C)c1ccc(N=Nc2ccccc2)cc1
f

====

assay: physchem; conditions: water
property-measured: solubility (µg/mL)
Answers are plain numbers, in µg/mL.

{"columns": ["compound", "unit-of-measurement", "solubility"],
 "data": [
  ["CC(=O)Nc1nnc(S(N)(=O)=O)s1 [Acetazolamide, acetazolamide]", "µg/mL", 700]
]}

Moving on to the next compound.
Name the reported solubility value associated with the compound Clc1ccc(COC(Cn2ccnc2)c2ccc(Cl)cc2Cl)c(Cl)c1 (centres unmarked)
40

====

assay: physchem; conditions: 0.25% cmc + 10% hpbetacd
property-measured: solubility (µg/mL)
Numbers only, in µg/mL.

{"columns": ["compound", "solubility / µg/mL"],
 "data": [
  ["CC(=O)Nc1nnc(S(N)(=O)=O)s1 [Acetazolamide, acetazolamide]", 3110],
  ["Clc1ccc(COC(Cn2ccnc2)c2ccc(Cl)cc2Cl)c(Cl)c1 (centres unmarked) [Miconazole, miconazole]", 2500],
  ["Clc1ccccc1C(c1ccccc1)(c1ccccc1)n1ccnc1 [Clotrimazole, clotrimazole]", 1400],
  ["CCOc1ccc2nc(S(N)(=O)=O)sc2c1 [Ethoxyzolamide]", 1660],
  ["C[C@]12C=CC(=O)C=C1CC[C@@H]1[C@@H]2[C@@H](O)C[C@@]2(C)[C@H]1CC[C@]2(O)C(=O)CO [Prednisolone, prednisolone]", 15300]
]}

List reported solubility for each of these compounds:
1. Cc1nnc2n1-c1ccc(Cl)cc1C(c1ccccc1)=NC2 [Alprazolam]
2. Clc1ccc(COC(Cn2ccnc2)c2ccc(Cl)cc2Cl)cc1 (centres unmarked) [Econazole, econazole]
3. CC1(C)O[C@@H]2C[C@H]3[C@@H]4CCC5=CC(=O)C=C[C@]5(C)[C@@]4(F)[C@@H](O)C[C@]3(C)[C@]2(C(=O)CO)O1 [Triamcinolone acetonide, triamcinolone acetonide]

1550
7410
2580
